Field: hPPB (fu %). Provide a value for each of the compounds that follow.
experiment: Protein binding in human plasma by equilibrium dialysis; type: in vitro ADME; conditions: human plasma, 5 μM, 18 hours at 37° C.; fraction unbound
Quick reminder: number only, in %, skip the unit.

Output hPPB (fu %) of Nc1nccn2c(C3CCC(CO)OC3)nc(-c3ccc(Oc4cccc(F)c4F)cc3)c12 (single isomer, unassigned) 7.3

Output hPPB (fu %) of Nc1nccn2c(C3CCC(CO)OC3)nc(-c3ccc(Oc4ccccc4)cc3F)c12 (single isomer, unassigned) 11.9

Output hPPB (fu %) of Nc1ncnn2c(C3CCC(CO)OC3)nc(-c3ccc(Oc4ccccc4)cc3F)c12 (single isomer, unassigned) [Compound 11] 8.9

Output hPPB (fu %) of Nc1ncnn2c(C3CCC(CO)OC3)nc(-c3ccc(Oc4cccc(F)c4F)cc3)c12 (centres unmarked) 6.4

Output hPPB (fu %) of Nc1nccn2c(C3CCC(CO)OC3)nc(-c3ccc(Oc4ccccc4)c(F)c3F)c12 (single isomer, unassigned) 9.0

Output hPPB (fu %) of Nc1ncnn2c(C3CCC(CO)OC3)nc(-c3ccc(Oc4ccccc4)cc3F)c12 (single isomer, unassigned) [Compound 9] 5.8

Output hPPB (fu %) of Nc1ncnn2c(C3CCC(CO)OC3)nc(-c3ccc(Oc4ccccc4)cc3F)c12 (single isomer, unassigned) [Compound 10] 8.1

Output hPPB (fu %) of Nc1ncnn2c(C3CCC(CO)OC3)nc(-c3ccc(Oc4ccccc4)c(F)c3F)c12 (centres unmarked) 8.4

Source: patent US12624039B2
